system: thrombin (Homo sapiens, UniProt P00734)
assay info: Measurement of the thrombin inhibition in buffer
Format: biochemical
assay setup: human thrombin 0.06 nmol/l in Tris buffer pH 7.4, 22° C., substrate Boc-Asp(OBzl)-Pro-Arg-AMC; in some cases means of individual determinations
measured metric: IC50 (µM)

Here are 10 molecules together with their reported answers.
CCC1C(=O)NC(C)CN1C(=O)c1cc(OC)c2nc(NCc3cccc(Cl)c3)nn2c1 (single isomer, unassigned) ... 0.0098
COc1cc(C(=O)N2CC(C)OCC2C(C)(C)O)cn2nc(NCc3cccc(Cl)c3)nc12 (single isomer, unassigned) ... 0.031
COc1cc(C(=O)N2CC(C)OCC2C2CC(O)C2)cn2nc(NCc3cccc(Cl)c3)nc12 (single isomer, unassigned) [Example 4] ... 0.0094
COc1cc(C(=O)N2CC(C)OCC2(C)C)cn2nc(NCc3cccc(Cl)c3)nc12 (single isomer, unassigned) [Example 27] ... 0.062
COc1cc(C(=O)N2CC(C)OCC23CC(O)C3)cn2nc(NCc3cccc(Cl)c3)nc12 (single isomer, unassigned) [Example 20] ... 0.035
COc1cc(C(=O)N2CC(C)(C)OCC2(C)CO)cn2nc(NCc3cccc(Cl)c3)nc12 (racemic) [Example 8] ... 0.02
COc1cc(C(=O)N2CC(C)OCC2(C)CO)cn2nc(NCc3cccc(Cl)c3)nc12 (single isomer, unassigned) [Example 30] ... 0.045
COc1cc(C(=O)N2CC3(CC3)NC(=O)C2C)cn2nc(NCc3cccc(Cl)c3)nc12 (single isomer, unassigned) ... 0.017
COc1cc(C(=O)N2CC(C)(C)OCC2CF)cn2nc(NCc3cccc(Cl)c3)nc12 (single isomer, unassigned) [Example 14] ... 0.024
[2H]C([2H])(C)O[C@@H]1CC(CO)N(C(=O)c2cc(OC)c3nc(NCc4cccc(Cl)c4)nn3c2)C1 (single isomer, unassigned) ... 0.019

(1) COc1cc(C(=O)N2CC(C)OCC2C2CC(O)C2)cn2nc(NCc3cccc(Cl)c3)nc12 (single isomer, unassigned) [Example 3]
(2) COc1cc(C(=O)N2CC(C)OCC2CCO)cn2nc(NC(CF)c3cccc(Cl)c3)nc12 (single isomer, unassigned) [Example 18]
(3) COc1cc(C(=O)N2CC(C)OCC23CC(O)C3)cn2nc(NC(CF)c3cccc(Cl)c3)nc12 (single isomer, unassigned) [Example 24]
-- ask List items by IC50 in falling order. To answer, arrange all of the labels according to the requested order.
-- reply 1, 2, 3

###

system: thrombin (Homo sapiens)
assay info: Measurement of the thrombin inhibition in buffer
Type: biochemical
assay setup: human thrombin 0.06 nmol/l in Tris buffer pH 7.4, 22° C., substrate Boc-Asp(OBzl)-Pro-Arg-AMC; in some cases means of individual determinations
measured metric: IC50 (nM)

Before answering, review these 4 worked examples.
COc1cc(C(=O)N2CC(C)(C)OCC2CC(C)O)cn2nc(NCc3cccc(Cl)c3)nc12 (single isomer, unassigned) [Example 48] ... 39
COc1cc(C(=O)N2CC(C)(C)OCC2CF)cn2nc(NCc3cccc(Cl)c3)nc12 (racemic) [Example 12] ... 35
COc1cc(C(=O)N2CC(C)OCC2(C)C)cn2nc(NCc3cccc(Cl)c3)nc12 (single isomer, unassigned) [Example 28] ... 180
COc1cc(C(=O)N2C[C@H](OCC(F)F)CC2CO)cn2nc(NCc3cccc(Cl)c3)nc12 (single isomer, unassigned) ... 23

(A) COc1cc(C(=O)N2CC3CCN3C(=O)C2C)cn2nc(NC(CF)c3cccc(Cl)c3)nc12 (single isomer, unassigned)
(B) COc1cc(C(=O)N2CC(C)(CC(C)O)OCC2(C)C)cn2nc(NCc3cccc(Cl)c3)nc12 (single isomer, unassigned) [Example 39]
-- ask Field: lower recorded IC50 (choose A or B ) Return value: the label identifying the chosen record.
-- reply A
(A: 6.4 nM, B: 30 nM)

Entry source: patent US20160108039A1
